Where these numbers come from: paper PMC11481871

Test: in vitro
Format: cell-based, human
Settings: human, General cytotoxicity IC50, Serum-Free
PROPERTY: IC50 at 2 day

Query string: Quick one: IC50 at 2 day for C[C@H](Nc1ccc2ncc(CO)cc2c1)C(=O)Nc1ccc(Cl)c(N(C)C)c1 ?
Result string: > 100 µM

Query string: Would you kindly repeat that for C[C@@H](Oc1ccc2ncc3c(c2c1)CCOC3)c1cncc(-c2nc(Cl)c[nH]2)c1 ?
Result string: 30.2 µM

Query string: Would you kindly repeat that for C[C@H](Nc1ccc2ncc3c(c2c1)CCOC3)C(=O)Nc1ccc(Cl)nc1 ?
Result string: > 100 µM

* * *

Biological target: E. coli GuaB (Escherichia coli)
Sequence (P0ADG7 whole entry): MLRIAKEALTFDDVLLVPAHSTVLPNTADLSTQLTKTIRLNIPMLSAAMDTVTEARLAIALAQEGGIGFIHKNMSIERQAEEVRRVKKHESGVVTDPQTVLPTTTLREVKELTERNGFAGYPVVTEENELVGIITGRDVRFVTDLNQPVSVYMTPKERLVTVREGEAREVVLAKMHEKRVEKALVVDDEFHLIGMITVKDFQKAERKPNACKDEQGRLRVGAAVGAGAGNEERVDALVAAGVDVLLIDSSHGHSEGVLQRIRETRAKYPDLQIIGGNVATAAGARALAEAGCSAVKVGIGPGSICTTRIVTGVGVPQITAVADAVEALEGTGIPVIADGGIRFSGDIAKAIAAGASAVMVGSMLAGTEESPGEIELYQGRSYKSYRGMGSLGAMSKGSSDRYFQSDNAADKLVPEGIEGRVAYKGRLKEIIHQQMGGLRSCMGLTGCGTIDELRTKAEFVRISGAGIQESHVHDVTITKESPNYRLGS
Entries and their IC50 values follow.
Answer in nM, number only, no unit symbol.

# COMPOUND, VALUE UNITS, IC50
measured = [
    ("C[C@H](Nc1ccc2ncc3c(c2c1)CCOC3)C(=O)Nc1ccc(Cl)nc1 [G1]", "nM", 480),
    ("C[C@@H](Oc1ccc2ncc3c(c2c1)CCOC3)c1cncc(-c2nc(Cl)c[nH]2)c1 [G8]", "nM", 8),
]

Shifting focus to the compound that follows.
Query string: Quick one: IC50 for C[C@H](Nc1ccc2ncc(CO)cc2c1)C(=O)Nc1ccc(Cl)c(N(C)C)c1 [G2] ?
Result string: 16

* * *

Biological target: A. baumannii GuaB (Acinetobacter baumannii)
Sequence (D0CF46 entry or part of it): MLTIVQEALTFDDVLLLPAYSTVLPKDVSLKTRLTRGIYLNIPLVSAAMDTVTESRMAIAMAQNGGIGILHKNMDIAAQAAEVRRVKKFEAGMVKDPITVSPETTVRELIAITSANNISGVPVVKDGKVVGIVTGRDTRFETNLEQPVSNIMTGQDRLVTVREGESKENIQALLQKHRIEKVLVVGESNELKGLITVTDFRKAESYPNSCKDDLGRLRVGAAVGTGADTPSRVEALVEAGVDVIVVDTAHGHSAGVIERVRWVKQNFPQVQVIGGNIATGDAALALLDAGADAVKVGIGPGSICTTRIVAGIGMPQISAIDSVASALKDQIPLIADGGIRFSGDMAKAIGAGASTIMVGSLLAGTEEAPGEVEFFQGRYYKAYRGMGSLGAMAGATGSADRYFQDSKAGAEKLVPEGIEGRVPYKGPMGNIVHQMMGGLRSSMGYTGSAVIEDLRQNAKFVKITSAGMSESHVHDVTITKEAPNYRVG
Assay: GuaB biochemical IC50
Entries and their IC50 values follow.
Answer in nM, number only, no unit symbol.

A selection of reference data follows.
# SUBSTANCE SMILES, TEST TARGET, IC50 [nM]
measured = [
    ("C[C@@H](Oc1ccc2ncc3c(c2c1)CCOC3)c1cncc(-c2nc(Cl)c[nH]2)c1", "A. baumannii GuaB (Acinetobacter baumannii)", 0.14),
    ("C[C@H](Nc1ccc2ncc(CO)cc2c1)C(=O)Nc1ccc(Cl)c(N(C)C)c1", "A. baumannii GuaB (Acinetobacter baumannii)", 0.63),
]

Shifting focus to the compound that follows.
Query string: Find IC50 (A. baumannii GuaB (Acinetobacter baumannii)) for the entry C[C@H](Nc1ccc2ncc3c(c2c1)CCOC3)C(=O)Nc1ccc(Cl)nc1
Result string: 0.26

* * *

Experiment: In vivo pharmacokinetic study, 24-h i.v. infusion
Set-up: species or system mouse
Settings: female, CD-1, mouse, whole blood, iv; mice, 24-h i.v. infusion 250 mg/kg, co-administered 150 mg/kg ABT; read-out: exposure AUC0-24
PROPERTY: AUC(0-t)
Note: a bare number is incomplete; add the unit.

Query string: Quick one: AUC(0-t) for C[C@H](Nc1ccc2ncc3c(c2c1)CCOC3)C(=O)Nc1ccc(Cl)nc1 [G1] ?
Result string: 692 µM·h

* * *

Entries and their IC50 values follow.
Biological target: S. aureus GuaB (Staphylococcus aureus, UniProt P99106)
Sequence (P99106 whole entry): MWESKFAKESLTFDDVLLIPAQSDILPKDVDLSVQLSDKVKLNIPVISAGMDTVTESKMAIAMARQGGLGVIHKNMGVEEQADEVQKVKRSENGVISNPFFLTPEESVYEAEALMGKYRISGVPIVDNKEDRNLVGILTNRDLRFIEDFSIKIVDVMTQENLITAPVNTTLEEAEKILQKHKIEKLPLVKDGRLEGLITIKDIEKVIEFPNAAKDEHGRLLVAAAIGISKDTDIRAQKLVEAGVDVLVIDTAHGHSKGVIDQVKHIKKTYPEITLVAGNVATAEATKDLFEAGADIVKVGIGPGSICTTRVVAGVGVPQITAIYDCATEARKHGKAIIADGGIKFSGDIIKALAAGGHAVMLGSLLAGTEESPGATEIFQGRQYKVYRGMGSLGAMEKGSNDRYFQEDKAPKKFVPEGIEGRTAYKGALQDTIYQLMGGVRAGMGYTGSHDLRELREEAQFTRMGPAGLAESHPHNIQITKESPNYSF
Answer in nM, number only, no unit symbol.

A selection of reference data follows.
# COMPOUND, VALUE UNITS, IC50
measured = [
    ("C[C@@H](Oc1ccc2ncc3c(c2c1)CCOC3)c1cncc(-c2nc(Cl)c[nH]2)c1 [G8]", "nM", 0.21),
    ("C[C@H](Nc1ccc2ncc(CO)cc2c1)C(=O)Nc1ccc(Cl)c(N(C)C)c1 [G2]", "nM", 3.4),
]

Query string: Quick one: IC50 for C[C@H](Nc1ccc2ncc3c(c2c1)CCOC3)C(=O)Nc1ccc(Cl)nc1 [G1] ?
Result string: 0.38
